Quick reference for t1/2 among some compounds
- assay procedure: Metabolic stability in mouse liver microsomes assessed as half-life at 10 uM measured upto 4 hrs in presence of NADPH by UPLC-MS/MS analysis
- Type: ADME, Microsome
- condition details: microsomes, 4 h, 10 µM
metric: t1/2

> print(dat)
                                   compound  experimental.value
1  O=C1CCC(N2Cc3cc(Nc4noc5ccccc45)ccc3C2=O)C(=O)N1 (configuration not stated)              > 10 h
2  COc1cccc(C(=O)Nc2ccc3c(c2)CN(C2CCC(=O)NC2=O)C3=O)c1 (configuration not stated)              > 10 h
3  O=C1CCC(N2Cc3cc(NC(=O)c4cccc(F)c4)ccc3C2=O)C(=O)N1 (configuration not stated)              > 10 h
4  O=C1CCC(N2Cc3cc(NC(=O)c4ccc(F)cc4)ccc3C2=O)C(=O)N1 (configuration not stated)              > 10 h
5  Cc1cccc(C(=O)Nc2ccc3c(c2)CN(C2CCC(=O)NC2=O)C3=O)c1 (configuration not stated)               5.6 h
6  O=C1CCC(N2Cc3cc(Nc4noc5cc(F)ccc45)ccc3C2=O)C(=O)N1 (configuration not stated)              > 10 h
7  Cc1ccc(C(=O)Nc2ccc3c(c2)CN(C2CCC(=O)NC2=O)C3=O)cc1 (configuration not stated)               4.3 h

Value source: ChEMBL document CHEMBL6071193
